- Test system: VDR:RXRa (NR concentration 270 nM, RXRa partner concentration 90 nM)
- EXPERIMENTAL_DETAILS: PBM binding z-score (relative to random genomic background probes); higher = stronger binding; sequences stand for … in GC…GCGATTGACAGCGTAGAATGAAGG
PBM binding z-score values by entry
# output: bare number, no unit

The cases that follow already have their PBM binding z-score on record.
>>> measured_result("ACTAGCAGGCCAAGGGTCACGCAAGATTAGTCCG")
3.76
>>> measured_result("ATCTCTAGGTTACAAGTTCAGTGAAAGAGAGGAC")
2.7
>>> measured_result("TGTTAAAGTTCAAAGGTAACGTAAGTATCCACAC")
4.87
>>> measured_result("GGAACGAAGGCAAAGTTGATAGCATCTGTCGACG")
-0.832
>>> measured_result("TTACCAAGGTGAAAGGTCGCTGATGCACGCCTTG")
2.72
>>> measured_result("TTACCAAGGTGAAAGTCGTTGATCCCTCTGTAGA")
0.25

IN: Would you mind telling me what PBM binding z-score value was observed for `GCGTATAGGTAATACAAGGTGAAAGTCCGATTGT` ?
OUT: 0.306

IN: `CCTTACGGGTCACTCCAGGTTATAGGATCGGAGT` ?
OUT: 4.34

IN: What about `TTACCAAGGTGAAACGTCGTTGATGCACGCCTTG` ?
OUT: -0.243

IN: Then this sequence: `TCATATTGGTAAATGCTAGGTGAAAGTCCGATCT`
OUT: 0.687

IN: # iterate: `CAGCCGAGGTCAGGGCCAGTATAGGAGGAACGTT`
OUT: 3.64

IN: Request: `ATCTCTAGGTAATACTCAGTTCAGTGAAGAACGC`
OUT: 1.55

IN: Cool, now `CAAACTAGGTCATGAAAGGTCAAAGTCGAATGAC`
OUT: 6.73

IN: Likewise for `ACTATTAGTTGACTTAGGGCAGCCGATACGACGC` ?
OUT: 0.0476

IN: Also need `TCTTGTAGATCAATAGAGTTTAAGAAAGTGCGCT` , thanks.
OUT: 1.23

IN: Continue with `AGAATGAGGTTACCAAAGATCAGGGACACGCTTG`
OUT: 1.54

IN: Same question for `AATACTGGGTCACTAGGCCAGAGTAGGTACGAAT` please.
OUT: 1.47

IN: Lookup `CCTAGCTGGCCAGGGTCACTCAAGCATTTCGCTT`
OUT: 2.36

IN: Input `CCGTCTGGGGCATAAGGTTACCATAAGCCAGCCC`
OUT: 0.256

IN: Field entry: `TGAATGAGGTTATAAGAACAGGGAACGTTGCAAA`
OUT: 0.915

IN: Now this one: `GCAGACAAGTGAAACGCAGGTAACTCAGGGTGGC`
OUT: -0.581

IN: Now consider `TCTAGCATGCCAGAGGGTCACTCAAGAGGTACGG` .
OUT: 1.46

IN: Queued: `TCATATAGGTAATACGGGTGAAAGTCGGCATCTA`
OUT: 1.25

IN: Would you kindly repeat that for `CTCGAAAGGTCGTGCCCAGGTGAGTATACCAAAC` ?
OUT: 3.33

IN: Now consider `CCTCGGGGGACAACAGGAGGTCAGAGCTGCCAGA` .
OUT: 2.71

IN: Try this sequence too: `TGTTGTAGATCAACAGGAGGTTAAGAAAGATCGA`
OUT: 0.37

IN: Can you handle `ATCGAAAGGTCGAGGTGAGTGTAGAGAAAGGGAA` next?
OUT: 3.21

IN: Same question for `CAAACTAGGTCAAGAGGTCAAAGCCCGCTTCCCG` please.
OUT: 5.9

IN: Note, next up: `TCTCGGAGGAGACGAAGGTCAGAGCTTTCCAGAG`
OUT: 0.483

IN: And `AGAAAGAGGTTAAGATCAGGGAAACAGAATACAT` ?
OUT: 1.25
